# test_name: Bidirectional transport of HCPT in the Caco-2 cell transwell model with or without verapamil
# condition_context: human, Caco-2, pH 7.4, efflux ratio, Caco-2 transwell, HCPT 2 μM, in the presence of verapamil
# Description: The Caco-2 cell line was obtained from the American Type Culture Collection (Manassas, VA), and it was performed according to the previous study (Liu et al. [2019]). […] The transepithelial electrical resistance (TEER) of the monolayer cells was measured using Millicell ERS-2 (Millipore Corporation, Billerica, MA), and TEER exceeding 400 Ω·cm^2 was used for the flux experiment. […]
test_readout: efflux ratio at 2 µM
The reply should be a number, written without any unit.

Prompt line: Entry CC[C@@]1(O)C(=O)OCc2c1cc1n(c2=O)Cc2cc3cc(O)ccc3nc2-1 [HCPT, Hydroxycamptothecin] : reported efflux ratio at 2 µM = ?
Response line: 1.21
